tested on: CP237; experiment: qHTS profiling for inhibitors of Plasmodium falciparum proliferation (AID 504749); note: nearly all actives have a fitted effect of over 60% in size; note: potency is the fitted concentration of half-maximal effect; conditions: P. falciparum in erythrocytes, SYBR Green DNA, 72 h; series mostly up to 12.8 µM
Results filed as inconclusive are left out. The source made the active and inactive calls. Calls come from the whole dose curve; as a rule, active = well fitted inhibition curve with a large enough effect; inconclusive = small, poorly fitted or top-dose-only effect; inactive = flat fitted curve, though single readings scatter.
reported endpoint: Potency

- compound: "CC(C)(C)NC[C@H](O)COc1cccc2c1C[C@@H](O)[C@@H](O)C2"
  target or test system: "CP237"
  reported endpoint: "Potency"
  measurement: "inactive"
- compound: "C[C@H](N[C@@H](C)COc1ccccc1)[C@H](O)c1ccc(O)cc1"
  target or test system: "CP237"
  reported endpoint: "Potency"
  measurement: "3.55 µM (active)"
- compound: "NC[C@@H]1O[C@H](O[C@@H]2[C@H](O[C@@H]3O[C@H](CO)[C@@H](O)[C@@H]3O)[C@@H](O)[C@@H](N)C[C@H]2N)[C@@H](N)[C@H](O)[C@@H]1O"
  target or test system: "CP237"
  reported endpoint: "Potency"
  measurement: "inactive"
- compound: "CC[C@H](Cc1c(I)cc(I)c(N)c1I)C(=O)O"
  target or test system: "CP237"
  reported endpoint: "Potency"
  measurement: "inactive"
- compound: "CC(C)NC[C@H]1CCc2cc(CO)c([N+](=O)[O-])cc2N1"
  target or test system: "CP237"
  reported endpoint: "Potency"
  measurement: "inactive"
- compound: "COc1cc(N[C@@H](C)CCCN)c2ncccc2c1"
  target or test system: "CP237"
  reported endpoint: "Potency"
  measurement: "2.51 µM (active)"
- compound: "CC(=C(CCOP(=O)(O)O)SC(=O)c1ccccc1)N(C=O)Cc1cnc(C)nc1N"
  target or test system: "CP237"
  reported endpoint: "Potency"
  measurement: "inactive"
- compound: "CC[C@@]12CCCN3CCc4c(n(c5ccccc45)[C@](O)(C(=O)OC)C1)C32 (some centres undefined)"
  target or test system: "CP237"
  reported endpoint: "Potency"
  measurement: "inactive"
- compound: "CC(C)(C)NC(=O)[C@@H]1CC[C@@H]2[C@@H]3CC[C@@H]4NC(=O)C=C[C@@]4(C)[C@H]3CC[C@]21C"
  target or test system: "CP237"
  reported endpoint: "Potency"
  measurement: "inactive"

Hey, just so you know, these numbers are from PubChem BioAssay (NCATS).
